Assay: A CellTox Green Cytotoxicity Assay to monitor cytotoxicity in HEK293 cells - 16 hour (AID 1224888); also: nearly all actives have a fitted effect of over 35% in size
Details: CellTox Green fluorescence; series mostly up to 76.8 µM
Inconclusive results are not listed. Calls of active or inactive are those of the source. Calls follow the shape of the dose curve; as a rule, active = well fitted activation curve with a large enough effect in the repeat runs; inconclusive = weak or mixed curves; inactive = flat fitted curve, though single readings scatter.
Classes used: 1.0 for active, 0.0 for inactive

In [3]: df
Out[3]:
                                    compound  class_name
 0                                 CN1CCOCC1         0.0
 1                           O=C(O)CCCC(=O)O         0.0
 2  CCC(Cc1c(I)cc(I)c(N)c1I)C(=O)O (stereo not given)         0.0
 3                           Nc1ccc(O)c(N)c1         0.0
 4  CC(C)[N+](C)(CCOC(=O)C1c2ccccc2Oc2ccccc21)C(C)C         0.0
 5  O=C1OC2(c3ccccc31)c1cc(I)c(O)c(I)c1Oc1c2cc(I)c(O)c1I         1.0
 6                           COC(=O)CC(=O)OC         0.0
 7                         O=C(O)c1ccc(O)cc1         0.0
 8  CCc1cccc2c3c([nH]c12)C(CC)(CC(=O)O)OCC3 (stereo not given)         0.0
 9                            CCCCCCCCCCCCCO         0.0
10                                   OCCNCCO         0.0
11                   [O-]/[N+](=N\O)c1ccccc1         0.0
12                   Cc1ccc(S(=O)(=O)NCl)cc1         0.0
13                           Cc1ccc(C)c(O)c1         0.0
14                CCCCCCCC/C=C\CCCCCCCC(=O)O         0.0

----------
Test: qHTS assay to identify small molecule agonists of the constitutive androstane receptor (CAR) signaling pathway - cell viability counter screen (AID 1224836); also: nearly all actives have a fitted effect of over 45% in size
Settings: HepG2-CYP2B6-hCAR viability, CellTiter-Fluor, 23 h, PK11195 added to every well; series mostly up to 92.4 µM
Results filed as inconclusive are left out. Calls of active or inactive are those of the source. Calls follow the shape of the dose curve; as a rule, active = well fitted cell-killing curve with a large enough effect in the repeat runs; inconclusive = weak or mixed curves, or effect the other way; inactive = flat fitted curve, though single readings scatter.
Outcomes: 1.0 = active, 0.0 = inactive

>>> df
                                    molecule  class_name
 0       COc1ccc(-c2coc3cc(O)cc(O)c3c2=O)cc1         0.0
 1                                 C=CCNCC=C         0.0
 2                            CCCCCCCCCCCCCO         0.0
 3  O=C(CCCN1CCC(O)(c2ccc(Cl)cc2)CC1)c1ccc(F)cc1         1.0
 4                   [O-]/[N+](=N\O)c1ccccc1         0.0
 5                CCCCCCCC/C=C\CCCCCCCC(=O)O         0.0
 6          CN(C)CCCN1c2ccccc2Sc2ccc(Cl)cc21         1.0
 7                                  CCCCCC=O         0.0
 8  C=C[C@H]1CN2CC[C@H]1C[C@H]2[C@H](O)c1ccnc2ccc(OC)cc12         0.0
 9                             CCCCCCOCCOCCO         0.0
10        Cc1ccc(/C(=C\CN2CCCC2)c2ccccn2)cc1         0.0
11  C[C@]12C=CC(=O)C=C1CC[C@H]1[C@@H]3C[C@@H](O)[C@](O)(C(=O)CO)[C@@]3(C)C[C@H](O)[C@@]12F         0.0
12  CC(=O)Oc1ccc(C(c2ccc(OC(C)=O)cc2)c2ccccn2)cc1         0.0
13                          C=CCOC(=O)C(=C)C         0.0
14  CC1(C)C(C=C(Cl)Cl)C1C(=O)OCc1cccc(Oc2ccccc2)c1 (configuration not stated)         0.0
15                  NC[C@H](O)c1ccc(O)c(O)c1         0.0
16  C=CC(C)(O)CCC=C(C)C (configuration not stated)         0.0
17                                O=[Se](O)O         1.0
18  CCCCCC1C(=O)CCC1CC(=O)OC (configuration not stated)         0.0
19               Cc1cccc(Nc2ccccc2C(=O)O)c1C         0.0
20                                  C1COCCN1         0.0
21  CC(=O)O[C@]1(C(C)=O)CC[C@H]2[C@@H]3C=C(C)C4=CC(=O)CC[C@]4(C)[C@H]3CC[C@@]21C         0.0
22  C[C@]12CC[C@@H]3c4ccc(O)cc4CC[C@H]3[C@@H]1CC[C@@H]2O         0.0
23                      C1CN(SSN2CCOCC2)CCO1         0.0
24             Nc1ccc2c(c1)C(=O)c1ccccc1C2=O         0.0
25                C=C[Si](OCCOC)(OCCOC)OCCOC         0.0
26  O=C(O)COCCN1CCN(C(c2ccccc2)c2ccc(Cl)cc2)CC1 (configuration not stated)         0.0

----------
Assay: qHTS assay to identify small molecule agonists of the estrogen related receptor (ERR) signaling pathway from Tox21 library (AID 1224849); also: % is scaled to controls: 0 for no effect and ±100 for the full control effect; nearly all actives have a fitted effect of over 15% in size
Conditions: ERR reporter cell line, ONE-Glo luciferase, 18 h; at 42.5 µM (top of the series)
attribute-measured: activity change, positive = activation (%)

                                  smiles_str  measurement_unit  recorded_result
 0                CN(C)/N=N/c1nc[nH]c1C(N)=O                 %            -23.2
 1  CC(=O)Oc1c(C)c(C)c2c(c1C)CC[C@@](C)(CCC[C@H](C)CCC[C@H](C)CCCC(C)C)O2                 %                0
 2  CC(=O)[C@@]1(O)CC[C@H]2[C@@H]3C[C@H](C)C4=CC(=O)C=C[C@]4(C)[C@@]3(F)[C@@H](O)C[C@@]21C                 %            -14.9
 3             COc1ccc(C(=O)c2ccccc2O)c(O)c1                 %            -1.96
 4  COc1cc([C@H]2Oc3cc([C@H]4Oc5cc(O)cc(O)c5C(=O)[C@@H]4O)ccc3O[C@@H]2CO)ccc1O                 %             4.78
 5  OC[C@@H](O)[C@@H](O[C@@H]1O[C@H](CO)[C@H](O)[C@H](O)[C@H]1O)[C@H](O)[C@@H](O)CO                 %             4.37
 6  CC[C@]12CCCN3CCc4c(n(c5ccccc45)[C@@](O)(C(=O)OC)C1)[C@@H]32                 %             7.75
 7  CC(=O)[C@H]1CC[C@H]2[C@@H]3CC=C4C[C@@H](O)CC[C@]4(C)[C@H]3CC[C@]12C                 %            -14.3
 8  C[C@]12C=CC(=O)C=C1CC[C@H]1[C@@H]3C[C@@H](O)[C@](O)(C(=O)CO)[C@@]3(C)C[C@H](O)[C@@]12F                 %             2.12
 9          CN(C)CCCN1c2ccccc2Sc2ccc(Cl)cc21                 %            -35.5
10  CC1(C)NC(=O)N(c2ccc([N+](=O)[O-])c(C(F)(F)F)c2)C1=O                 %            -39.2

----------
Experiment: qHTS assay to identify small molecule antagonists of the estrogen related receptor (ERR) signaling pathway from Tox21 library - cell viability counter screen (AID 1224834); also: % is scaled to controls: 0 for no effect and ±100 for the full control effect; nearly all actives have a fitted effect of over 30% in size
Conditions: ERR reporter cells viability, CellTiter-Fluor, 17.5 h; series mostly up to 92.4 µM
Records with an inconclusive call do not appear. Active and inactive are the calls of the source. The call rests on the fitted dose curve; in most records, active means well fitted cell-killing curve with a large enough effect in the repeat runs; inconclusive means weak or mixed curves; inactive means flat fitted curve, though single readings scatter.
attribute-measured: viability change, negative = cytotoxic

compound	attribute-measured	recorded-result
O=C(O)COCCN1CCN(C(c2ccccc2)c2ccc(Cl)cc2)CC1 (stereo not drawn)	viability change, negative = cytotoxic	inactive
C=CC(C)(O)CCC=C(C)C (stereo not drawn)	viability change, negative = cytotoxic	inactive
OC[C@H]1O[C@@H]2O[C@H]3[C@H](O)[C@@H](O)[C@@H](O[C@H]4[C@H](O)[C@@H](O)[C@@H](O[C@H]5[C@H](O)[C@@H](O)[C@@H](O[C@H]6[C@H](O)[C@@H](O)[C@@H](O[C@H]7[C@H](O)[C@@H](O)[C@@H](O[C@H]1[C@H](O)[C@H]2O)O[C@@H]7CO)O[C@@H]6CO)O[C@@H]5CO)O[C@@H]4CO)O[C@@H]3CO	viability change, negative = cytotoxic	inactive
